- targetUnderTest: RAT OXYTOCIN RECEPTOR (Rattus norvegicus, UniProt P70536)
- Sequence (P70536 1-388): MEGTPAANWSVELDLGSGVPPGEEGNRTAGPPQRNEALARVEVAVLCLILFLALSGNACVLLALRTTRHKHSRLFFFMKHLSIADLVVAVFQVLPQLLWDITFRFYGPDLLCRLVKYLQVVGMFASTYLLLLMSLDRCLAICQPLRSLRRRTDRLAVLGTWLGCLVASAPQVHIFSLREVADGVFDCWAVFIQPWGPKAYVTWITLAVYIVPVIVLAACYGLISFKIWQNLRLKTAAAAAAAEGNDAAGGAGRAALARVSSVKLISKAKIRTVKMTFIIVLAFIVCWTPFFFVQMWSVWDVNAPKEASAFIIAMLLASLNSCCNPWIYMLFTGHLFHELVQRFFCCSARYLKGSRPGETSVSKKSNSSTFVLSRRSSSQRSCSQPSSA
Starred links: 1 amine or outer side, 2 acyl side, 3 side chain; linkers in the order of their positions; H or OH if unused. Positions of bridges follow the written chain, without caps; N, C: chain ends. Non-standard residues stand in square brackets, D forms with d. Residues, ends and D or L forms follow the SMILES beside them. X1 = O=C(CC1(S[*:2])CCCCC1)[*:1]; Pen = CC(C)(S)[C@H](N)C(=O)O; Orn = NCCC[C@H](N)C(=O)O; Mpa = O=C(O)CCS
Can you tell me Kd for the items I'm about to list?
Give bare numbers, in nM.

Check out these entries, answers already filled in.
| compound | metricName | numericResult |
| --- | --- | --- |
| CC[C@H](C)[C@@H]1NC(=O)[C@@H](Cc2c[nH]c3ccccc23)NC(=O)CC2(CCCCC2)SSC(C)(C)[C@@H](C(=O)N2CCC[C@H]2C(=O)N[C@@H](CCCNC(=N)N)C(=O)NCC(N)=O)NC(=O)[C@H](CC(N)=O)NC(=O)[C@H](CCC(N)=O)NC1=O [Compound C2, [Pmp^1, DTrp^2, Pen^6, Arg^8] oxytocin] ([dW]IQN[Pen]PRG-NH2; linker N-5 via X1) | Kd | 0.87 |
| CC[C@H](C)[C@@H]1NC(=O)[C@H](Cc2ccccc2)NC(=O)[C@@H](Cc2c[nH]c3ccccc23)NC(=O)CC2(CCCCC2)SSC[C@@H](C(=O)N2CCC[C@H]2C(=O)N[C@@H](CCCNC(=N)N)C(=O)NCC(N)=O)NC(=O)[C@H](CC(N)=O)NC1=O [Compound B] ([dW]FINCPRG-NH2; linker N-5 via X1) | Kd | 8.62 |

Alright, here's another compound for you.
Hello, I am looking for reported Kd with RAT OXYTOCIN RECEPTOR (Rattus norvegicus, UniProt P70536) for CCOc1ccc(C[C@H]2NC(=O)CCSSC[C@@H](C(=O)N3CCC[C@H]3C(=O)N[C@@H](CCCN)C(=O)NCC(N)=O)NC(=O)[C@H](CC(N)=O)NC(=O)[C@H]([C@@H](C)O)NC(=O)[C@H]([C@@H](C)CC)NC2=O)cc1 [E, reference compound] ([Mpa][dY](Et)ITNCP[Orn]G-NH2; disulfide 1-6) . Could you help?
19.6

Each recorded value in this set is attributed to patent US5373089A.
